# Test system: herpes simplex virus type 1 (HSV-1) (KOS)
# TEST NAME: microbe, parasite or virus in culture
# Format: cell-based
# STATED CONDITIONS: Human alphaherpesvirus 1, E6SM; read-out: Minimum inhibitory concentration Herpes simplex virus-1 (KOS)
Provide the recorded EC50 for the entries that follow.
Give bare numbers, in µg/mL.

Take each entry in turn and give its EC50.
1. O=c1[nH]c(=O)n([C@H]2C[C@H](O)[C@@H](CO)O2)cc1/C=C/Br
2. NC(=O)c1ncn(C2O[C@H](CO)[C@@H](O)[C@H]2O)n1 (some centres unmarked)

1: 0.004; 2: 200

----------
# System: herpes simplex virus type 1 (HSV-1) (KOS)
# TEST NAME: microbe, parasite or virus in culture
# Format: cell-based
# STATED CONDITIONS: Human alphaherpesvirus 1, E6SM; Table I; E6 SM cells; required to reduce virus-induced cytopathogenesis by 50%; read-out: Minimum inhibiting concentration ED50 HSV-1 (KOS)
Threshold-based label: EC50 under 0.7 µg/mL gives criterion met, EC50 not under 0.7 µg/mL gives criterion not met.

COMPOUND	CATEGORY LABEL
Nc1ncnc2c1ncn2[C@@H]1CO[C@H](CO)[C@@H](O)C1	criterion not met

is_below(EC50, 0.7 µg/mL) for Nc1ncnc2c1ncn2C[C@H](O)CO [(S)-DHPA, (S)-9-(2,3-dihydroxypropyl)-adenine] ? criterion not met
